# system-tested: Carbonic anhydrase 2 (Homo sapiens, UniProt P00918)
# assay-text: Inhibition of recombinant human cytosolic carbonic anhydrase 2 pretreated for 15 mins prior to testing measured for 10 to 100 secs by phenol red based stopped-flow CO2 hydration assay
Consider the following compounds and their measured Ki readings.

Before answering, review these 3 worked examples.
compound: COc1ccc(C2C[Se]c3ccccc3N2S(=O)(=O)c2ccccc2[N+](=O)[O-])cc1 (stereo unspecified)
reported-measurement: > 100 µM

compound: O=[N+]([O-])c1ccccc1[Se][Se]c1ccccc1[N+](=O)[O-]
reported-measurement: > 100 µM

compound: Cc1ccc([Se][Se]c2ccc(C)cc2N)c(N)c1
reported-measurement: > 100 µM

I have this compound here, OC(COCc1ccccc1)C[Se]CC(O)COCc1ccccc1 (stereo unspecified) , and I need its recorded Ki.
> 100 µM

Moving on to O=[Se](O)c1ccccc1
> 100 µM

Moving on to COc1ccc(C(O)C[Se][Se]CC(O)c2ccc(OC)c(O)c2)cc1O (stereo unspecified)
> 100 µM
